Data provenance: the supplement of paper PMC9170038

# Tested on: MS2 coat protein
# test_description: apparent KD of MS2 coat protein; designed switch direction (-1 OFF switch, 1 ON switch): -1; higher = weaker reporter binding
# condition_summary: input ligand: microRNA oligo, concentration not stated
measured_parameter: apparent KD of MS2 coat protein (µM)
Give bare numbers, in µM.

Would you mind giving apparent KD of MS2 coat protein for every sequence in the list below?
1. CAUGAUUGACGAGGAUAUUGUUCUACAUCACGACGAGAAGGCGUCUGUCACAUGAGGAUCACCCAUGUGAGUCUGGUGAAUGAG [Ex NG1 #82] (Eterna round: R96, puzzle: Exclusion NG 1)
2. CCUAGUUGGUAAGGAUAUCCUACAUUAUUCUGACCCGUGCAAGCUACAUGAGGAUCACCCAUGUGGGAGAAGGUGCGUUAACGU [Design 8] (Eterna round: R96, puzzle: Exclusion NG 2)
3. AUGGUUCGAUUAGGAUAUUAUAGAUUGAAUAGUAUGAUUUACAUGAGGAUCACCCAUGUUACAUUUAAGAAGGAAUCGAAUCAU [JR_ExcNG2_Sub088] (Eterna round: R96, puzzle: Exclusion NG 2)

Reply:
1: 0.0172; 2: 0.0352; 3: 0.0132

Give apparent KD of MS2 coat protein for each listed item.
1. GCUGCACAUGUAGGAUAUCUGCACGUUUAGUGCAGAGAAGGACAUGAGGAUCACCCAUGUAGAUCAGCAGCAAUUAAUUUAAUU [ENG1/6-A3] (Eterna round: R96, puzzle: Exclusion NG 1)
2. UAUAUAUAGUAAGGAUAUGUAUUUAUUUUAUUAACAGAAGGUACUGACAUGAGGAUCACCCAUGUUUUAGUGUGGGCAUGUAGA [JMF's solution 25] (Eterna round: R96, puzzle: Exclusion NG 1)

Reply:
1: 0.479; 2: 0.0777
